Biological target: GSK3B (Homo sapiens)
Experiment: NanoBRET cellular target engagement assay, Nanoluc-GSK3B in HEK293 cells
Assay type: cell-based
Set-up: expressed in transfected cells
Details: NanoBRET GSK3β IC50, HEK293 cells, tracer K-8, 2 hours, 37° C
Description: In the assay, HEK293 cells stably expressing either Nanoluc-GSK3A or Nanoluc-GSK3B were maintained in culture media and seeded, using a multidrop dispenser, at a density of 5×10^3 cells per well in 384-well white plates with 100 ng/ml doxycycline (Sigma) overnight. Compound was first diluted in DMSO to generate a 9-point serial dilution then diluted to 10× final concentration in Opti-MEM™ (Gibco). […]
pIC50: −log10 of the molar value.
Property: pIC50

// worked examples, pIC50 included
> print(dat)
                                   compound  property   val
1  COCc1cc(C)c(-n2cnc(N)c(C(=O)Nc3cncc(C4(N)CCC4)c3)c2=O)c(C)c1     pIC50  5.94
2  CCOc1cc(C)c(-n2cnc(N)c(C(=O)Nc3cccc([C@H](N)COC)c3)c2=O)c(Cl)c1 (atropisomer, axis not shown)     pIC50  6.42
3  COc1cc(Cl)c(-n2cnc(N)c(C(=O)Nc3cncc(C4CCCC(C)N4)c3)c2=O)c(Cl)c1 (single isomer, unassigned)     pIC50  6.47

A = CCOc1cc(C)c(-n2cnc(N)c(C(=O)Nc3cncc(C4CCCCCN4)c3)c2=O)c(C)c1 (single isomer, unassigned)
B = COc1cc(Cl)c(-n2cnc(N)c(C(=O)Nc3cncc([C@@H](N)C(F)F)c3)c2=O)c(Cl)c1 (single isomer, unassigned)
C = COc1cc(Cl)c(-n2cnc(N)c(C(=O)Nc3cncc([C@H]4CCC[C@H](C)N4)c3)c2=O)c(Cl)c1 (single isomer, unassigned) [Example 81]
Arrange the 3 compounds from largest to smallest pIC50. Output the labels ranked as instructed.
C, A, B
(C: 6.93, A: 6.54, B: 6.11)

###

target: GSK3B (Homo sapiens, UniProt P49841); test: In vitro enzymatic activity assay, GSK3β; assay type: biochemical; set-up: Full length human GSK3α or GSK3B expressed as N-terminal GST fusion proteins; GST (N); purchased Carna Biosciences (Japan); host or cells: baculovirus host; conditions: 1.0 mM ATP, 1.0 μM peptide substrate, 120 min, 25° C, read-out: Enzyme GSK3β (IC50)
Sequence (P49841 whole entry, the tested form may be a part): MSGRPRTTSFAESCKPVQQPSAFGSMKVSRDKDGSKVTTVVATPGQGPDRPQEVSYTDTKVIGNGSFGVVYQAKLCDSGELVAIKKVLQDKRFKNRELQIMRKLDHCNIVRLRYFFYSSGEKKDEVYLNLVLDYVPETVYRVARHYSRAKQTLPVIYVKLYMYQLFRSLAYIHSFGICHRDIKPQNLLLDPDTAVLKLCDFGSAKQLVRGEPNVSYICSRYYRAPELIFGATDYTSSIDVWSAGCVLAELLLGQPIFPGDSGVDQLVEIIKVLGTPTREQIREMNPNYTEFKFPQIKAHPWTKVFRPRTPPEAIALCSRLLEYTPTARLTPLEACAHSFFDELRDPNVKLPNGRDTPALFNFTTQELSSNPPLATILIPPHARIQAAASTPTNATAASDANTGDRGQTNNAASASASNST
Property: IC50 (nM)

a = COCc1cc(C)c(-n2cnc(N)c(C(=O)Nc3cncc4c3CCC4(C)N)c2=O)c(C)c1 (single isomer, unassigned)
b = Nc1ncn(-c2c(Cl)cc(F)cc2Cl)c(=O)c1C(=O)Nc1cncc([C@@H]2CCCN2)c1
c = CCOc1cc(C)c(-n2cnc(N)c(C(=O)Nc3cncc(C4CCC(C)N4)c3)c2=O)c(C)c1 (single isomer, unassigned) [Example 93]
// sort listed items: IC50 descending Output the labels ranked as instructed.
c, b, a

###

molecular target: GSK3B (Homo sapiens, UniProt P49841); assay: NanoBRET cellular target engagement assay, Nanoluc-GSK3B in HEK293 cells; format: cell-based; set-up: expressed in transfected cells; details: NanoBRET GSK3β IC50, HEK293 cells, tracer K-8, 2 hours, 37° C
pIC50: −log10 of the molar value. Counter-ions that a name gives are not always drawn.
Property: pIC50

> print(dat)
                                   compound   val
1  CCCOc1cc(C)c(-n2cnc(N)c(C(=O)Nc3cncc(C(C)N)c3)c2=O)c(C)c1 (single isomer, unassigned)  6.30
2  Cc1cc(F)cc(C)c1-n1cnc(N)c(C(=O)Nc2cncc([C@H]3CCCCN3)c2)c1=O [Example 161, trifluoroacetate]  6.54
3  Nc1ncn(-c2c(Cl)cc(C(F)F)cc2Cl)c(=O)c1C(=O)Nc1cncc([C@@H]2CCCCN2)c1  6.56

a = Cc1cc(C#N)cc(Cl)c1-n1cnc(N)c(C(=O)Nc2cccc([C@@H]3CCCCN3)c2)c1=O (single isomer, unassigned)
b = Cc1cc(C(F)F)cc(C)c1-n1cnc(N)c(C(=O)Nc2cncc([C@H]3CCC[C@H](C)N3)c2)c1=O (single isomer, unassigned)
c = CCOc1cc(Cl)c(-n2cnc(N)c(C(=O)Nc3cncc(C(N)CC)c3)c2=O)c(Cl)c1 (single isomer, unassigned)
Arrange the 3 compounds from largest to smallest pIC50. Output the labels ranked as instructed.
c, a, b
